Target: human PAD4 (hPAD4) (Homo sapiens)
Sequence (Q9UM07 whole entry): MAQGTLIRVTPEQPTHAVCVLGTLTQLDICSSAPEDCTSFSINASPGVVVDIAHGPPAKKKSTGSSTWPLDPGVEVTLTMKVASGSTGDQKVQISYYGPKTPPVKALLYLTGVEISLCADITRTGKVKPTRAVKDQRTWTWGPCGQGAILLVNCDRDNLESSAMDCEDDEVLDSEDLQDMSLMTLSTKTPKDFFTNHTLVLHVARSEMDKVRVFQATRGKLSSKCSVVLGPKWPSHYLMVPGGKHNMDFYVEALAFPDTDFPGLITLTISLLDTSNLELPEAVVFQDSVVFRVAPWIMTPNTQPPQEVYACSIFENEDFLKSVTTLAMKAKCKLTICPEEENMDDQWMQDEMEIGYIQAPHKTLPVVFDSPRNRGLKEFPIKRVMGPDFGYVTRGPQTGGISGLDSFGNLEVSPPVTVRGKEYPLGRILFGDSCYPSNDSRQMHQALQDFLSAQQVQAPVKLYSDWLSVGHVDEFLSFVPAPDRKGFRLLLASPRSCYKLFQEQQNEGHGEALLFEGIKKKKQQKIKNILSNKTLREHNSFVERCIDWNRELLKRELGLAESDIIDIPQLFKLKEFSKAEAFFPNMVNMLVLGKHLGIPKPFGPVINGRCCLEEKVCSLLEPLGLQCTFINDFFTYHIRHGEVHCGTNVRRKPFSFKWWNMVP
Assay: RFMS Human PAD4 Functional Assay
Format: biochemical
Settings: hPAD4 RFMS IC50, human PAD4, rapid-fire mass spectrum (RFMS) assay; 5 nM hPAD4, 250 μM BAEE
Doc: threshold 40 nM (exclusive). Items with IC50 beneath it return 1; others return 0.

{"columns": ["molecule", "answerLabel"],
 "data": [
  ["COc1cc(C(=O)N2C[C@H]3CC[C@@H]2[C@@H]3N)cc2nc(-c3cc4cccc(-c5cc[nH]n5)c4n3CC3CC3)n(C)c12", 0],
  ["COCC(=O)N1CCC(c2cccc3cc(-c4nc5cc(C(=O)N6C[C@H]7CC[C@@H]6[C@@H]7N)cc(OC)c5n4C)n(CC4CC4)c23)CC1", 1],
  ["COc1cc(C(=O)N2C[C@H]3CC[C@@H]2[C@@H]3N)cc2nc(-c3cc4cccc(-c5ccc(CNC(C)=O)c(CO)c5)c4n3CC3CC3)n(C)c12", 0],
  ["COc1cc(C(=O)N2C[C@H]3CC[C@@H]2[C@@H]3N)cc2nc(-c3cc4cccc(C5CC(C(=O)N6CCC6)C5)c4n3CC3CC3)n(C)c12 (single isomer, unassigned; isomer 1) [Example 202]", 1]
]}

----------
Target: human PAD4 (hPAD4) (Homo sapiens)
Assay: RFMS Human PAD4 Functional Assay
Type: biochemical
Conditions: human PAD4, rapid-fire mass spectrum (RFMS) assay; 5 nM hPAD4, 250 μM BAEE; read-out: hPAD4 RFMS IC50
Decision: IC50 beneath 60 nM gives criterion met; IC50 meeting or exceeding 60 nM gives criterion not met.

{"columns": ["chemSmiles", "answerLabel"],
 "data": [
  ["COc1cc(C(=O)N2C[C@H]3CC[C@@H]2[C@@H]3N)cc2nc(-c3cc4cccc(-c5ccccc5CO)c4n3CC3CC3)n(C)c12", "criterion not met"],
  ["COc1cc(C(=O)N2C[C@H]3CC[C@@H]2[C@@H]3N)cc2nc(-c3cc4cccc(-n5cc(C6CNC6)nn5)c4n3CC3CC3)n(C)c12", "criterion not met"],
  ["COc1cc(C(=O)N2C[C@H]3CC[C@@H]2[C@@H]3N)cc2nc(-c3cc4cccc(C5CN(C(C)=O)C5)c4n3CC3CC3)n(C)c12", "criterion met"],
  ["COc1cc(C(=O)N2C[C@H](N)C[C@@H](F)C2)cc2nc(-c3cc4cccc(C5CN(C(C)=O)C5)c4n3CC3CC3)n(C)c12", "criterion met"],
  ["COc1cc(C(=O)N2C[C@H]3CC[C@@H]2[C@@H]3N)cc2nc(-c3cc4cccc(CCCC(=O)O)c4n3CC3CC3)n(C)c12", "criterion not met"],
  ["COc1cc(C(=O)N2C[C@H](N)C[C@@H](F)C2)cc2nc(-c3cc4cccc(C5CCN(C(C)=O)CC5)c4n3CC3CC3)n(Cc3cnn(C)c3)c12", "criterion met"],
  ["COc1cc(C(=O)N2C[C@H](N)C[C@@H](F)C2)cc2nc(-c3cc4cccc(OC)c4n3CC3CC3)n(C)c12", "criterion not met"],
  ["COc1cc(C(=O)N2C[C@H]3CC[C@@H]2[C@@H]3N)cc2nc(-c3cc4cccc(CC5CN(C(C)=O)C5)c4n3CC3CC3)n(C)c12", "criterion not met"],
  ["COc1cc(C(=O)N2C[C@H]3CC[C@@H]2[C@@H]3N)cc2nc(-c3cc4cccc(C5CCN(C(=O)N(C)C)CC5)c4n3CC3CC3)n(C)c12", "criterion met"],
  ["COc1cc(C(=O)N2C[C@H]3CC[C@@H]2[C@@H]3N)cc2nc(-c3cc4cccc(-c5ccccc5O)c4n3CC3CC3)n(C)c12", "criterion not met"],
  ["COc1cc(C(=O)N2C[C@H]3CC[C@@H]2[C@@H]3N)cc2nc(-c3cc4cccc(C5CN(C(=O)CN)C5)c4n3CC3CC3)n(C)c12", "criterion met"],
  ["COc1cc(C(=O)N2C[C@H]3CC[C@@H]2[C@@H]3N)cc2nc(-c3cc4cccc(-c5ccc(O)c(C(N)=O)c5)c4n3CC3CC3)n(C)c12", "criterion not met"]
]}

----------
Biological target: human PAD4 (hPAD4) (Homo sapiens)
Assay: RFMS Human PAD4 Functional Assay
Type: biochemical
Settings: hPAD4 RFMS IC50, human PAD4, rapid-fire mass spectrum (RFMS) assay; 5 nM hPAD4, 250 μM BAEE
Below, each entry is listed with its recorded IC50.
readoutLabel: IC50 (nM)

{"columns": ["compound", "unitsSymbol", "endpointValue"],
 "data": [
  ["COc1cc(C(=O)N2C[C@H]3CC[C@@H]2[C@@H]3N)cc2nc(-c3cc4cccc(-c5cccc6c5CNC6=O)c4n3CC3CC3)n(C)c12", "nM", 144],
  ["COc1cc(C(=O)N2C[C@H]3CC[C@@H]2[C@@H]3N)cc2nc(-c3cc4cccc(C5CCC5)c4n3CC3CC3)n(C)c12", "nM", 158],
  ["COc1cc(C(=O)N2C[C@H]3CC[C@@H]2[C@@H]3N)cc2nc(-c3cc4cccc(C5CC(C(=O)N6CC[C@H](O)C6)C5)c4n3CC3CC3)n(C)c12 (single isomer, unassigned) [Example 53]", "nM", 51],
  ["COc1cc(C(=O)N2C[C@H]3CC[C@@H]2[C@@H]3N)cc2nc(-c3cc4cccc(Nc5cn(C)nc5C)c4n3CC3CC3(F)F)n(C)c12 (stereo partly drawn)", "nM", 56],
  ["COc1cc(C(=O)N2C[C@H]3CC[C@@H]2[C@@H]3N)cc2nc(-c3cc4cccc(-c5ccc(O)cc5C#N)c4n3CC3CC3)n(C)c12", "nM", 33],
  ["COc1cc(C(=O)N2C[C@H](N)C[C@@H](F)C2)cc2nc(-c3cc4cccc(C5CC(C(=O)N6CCCC6)C5)c4n3CC3CC3)n(C)c12 (single isomer, unassigned) [Example 115]", "nM", 64]
]}

----------
Measured pIC50 of individual entries
Molecular target: UniProt:Q9UM07
Assay: RFMS Human PAD4 Functional Assay
Type: biochemical
Settings: hPAD4 RFMS IC50, human PAD4, rapid-fire mass spectrum (RFMS) assay; 5 nM hPAD4, 250 μM BAEE
pIC50: −log10 of the molar value.

{"columns": ["compound", "pIC50"],
 "data": [
  ["COC(=O)N1CC=C(c2cccc3cc(-c4nc5cc(C(=O)N6C[C@H]7CC[C@@H]6[C@@H]7N)cc(OC)c5n4C)n(CC4CC4)c23)CC1 [Example 221]", 7.11],
  ["COc1cc(C(=O)N2C[C@H]3CC[C@@H]2[C@@H]3N)cc2nc(-c3cc4cccc(C5=CCC5)c4n3CC3CC3)n(C)c12 [Example 219]", 7.28],
  ["CCOCC(=O)N1CCC(c2cccc3cc(-c4nc5cc(C(=O)N6C[C@H]7CC[C@@H]6[C@@H]7N)cc(OC)c5n4C)n(CC4CC4)c23)CC1 [Example 234]", 7.31],
  ["COc1cc(C(=O)N2C[C@H]3CC[C@@H]2[C@@H]3N)cc2nc(-c3cc4cccc(-c5ccc6c(c5)C(=O)NC6)c4n3CC3CC3)n(C)c12 [Example 98]", 7.46],
  ["COc1cc2c(cc1-c1cccc3cc(-c4nc5cc(C(=O)N6C[C@H]7CC[C@@H]6[C@@H]7N)cc(OC)c5n4C)n(CC4CC4)c13)CCC(=O)N2 [Example 204]", 6.86],
  ["COCCCC(=O)N1CCC(c2cccc3cc(-c4nc5cc(C(=O)N6C[C@H]7CC[C@@H]6[C@@H]7N)cc(OC)c5n4C)n(CC4CC4)c23)CC1 [Example 237]", 7.74]
]}

----------
Biological target: human PAD4 (hPAD4) (Homo sapiens)
Assay: RFMS Human PAD4 Functional Assay
Assay type: biochemical
Conditions: hPAD4 RFMS IC50, human PAD4, rapid-fire mass spectrum (RFMS) assay; 5 nM hPAD4, 250 μM BAEE
pIC50: −log10 of the molar value.
Known pIC50 of a selection of compounds
readoutLabel: pIC50

{"columns": ["compound", "studyTarget", "readoutLabel", "endpointValue"],
 "data": [
  ["COc1cc(C(=O)N2C[C@H]3CC[C@@H]2[C@@H]3N)cc2nc(-c3cc4cccc(C5CN(C(=O)Nc6ccccc6)C5)c4n3CC3CC3)n(C)c12 [Example 228]", "human PAD4 (hPAD4) (Homo sapiens)", "pIC50", 7.39],
  ["COc1cc(C(=O)N2C[C@H]3CC[C@@H]2[C@@H]3N)cc2nc(-c3cc4cccc(C5CN(C(=O)c6ccccc6)C5)c4n3CC3CC3)n(C)c12", "human PAD4 (hPAD4) (Homo sapiens)", "pIC50", 7.15],
  ["COc1ccccc1NC(=O)N1CCC(c2cccc3cc(-c4nc5cc(C(=O)N6C[C@H]7CC[C@@H]6[C@@H]7N)cc(OC)c5n4C)n(CC4CC4)c23)CC1", "human PAD4 (hPAD4) (Homo sapiens)", "pIC50", 8.05],
  ["COc1cc(C(=O)N2C[C@H]3CC[C@@H]2[C@@H]3N)cc2nc(-c3cc4cccc(C5CC(C(=O)N6CC(F)C6)C5)c4n3CC3CC3)n(C)c12 (single isomer, unassigned; isomer 1) [Example 200]", "human PAD4 (hPAD4) (Homo sapiens)", "pIC50", 7.68],
  ["COc1cc(C(=O)N2CC3CCC2C3N)cc2nc(-c3cc4cccc(Nc5cnc(C#N)nc5)c4n3CC3CC3)n(C)c12 (stereo not drawn)", "human PAD4 (hPAD4) (Homo sapiens)", "pIC50", 6.86],
  ["COc1cc(C(=O)N2C[C@H]3CC[C@@H]2[C@@H]3N)cc2nc(-c3cc4cccc(C5CC(C(=O)N6CC[C@@H](O)C6)C5)c4n3CC3CC3)n(C)c12 (single isomer, unassigned) [Example 52]", "human PAD4 (hPAD4) (Homo sapiens)", "pIC50", 7.01],
  ["COc1cc(C(=O)N2C[C@H]3CC[C@@H]2[C@@H]3N)cc2nc(-c3cc4cccc(CCC(N)=O)c4n3CC3CC3)n(C)c12", "human PAD4 (hPAD4) (Homo sapiens)", "pIC50", 7.33],
  ["COc1cc(C(=O)N2C[C@H]3CC[C@@H]2[C@@H]3N)cc2nc(-c3cc4cccc(-c5ccc6c(c5)C(F)(F)C(=O)N6)c4n3CC3CC3)n(C)c12", "human PAD4 (hPAD4) (Homo sapiens)", "pIC50", 7.07],
  ["COc1cc(C(=O)N2C[C@H]3CC[C@@H]2[C@@H]3N)cc2nc(-c3cc4cccc(C5CN(C(=O)Nc6ccccc6)C5)c4n3CC3CC3)n(C)c12 [Example 70]", "human PAD4 (hPAD4) (Homo sapiens)", "pIC50", 7.82],
  ["COc1cc(C(=O)N2CC3CCC2[C@@H]3N)cc2nc(-c3cc4cccc(-c5cccnc5)c4n3CC3CC3)n(C)c12 (stereo partly drawn)", "human PAD4 (hPAD4) (Homo sapiens)", "pIC50", 6.81],
  ["COc1cc(C(=O)N2C[C@H]3CC[C@@H]2[C@@H]3N)cc2nc(-c3cc4cccc(C5CCCOC5)c4n3CC3CC3)n(C)c12 (stereo partly drawn)", "human PAD4 (hPAD4) (Homo sapiens)", "pIC50", 7.03],
  ["COc1cc(C(=O)N2C[C@H]3CC[C@@H]2[C@@H]3N)cc2nc(-c3cc4cccc(C5CCN(C(=O)COC(C)C)CC5)c4n3CC3CC3)n(C)c12", "human PAD4 (hPAD4) (Homo sapiens)", "pIC50", 6.92]
]}
